Value source: patent US10487087B2

- assayed-system: UniProtKB P43220
- Sequence (P43220 24-463): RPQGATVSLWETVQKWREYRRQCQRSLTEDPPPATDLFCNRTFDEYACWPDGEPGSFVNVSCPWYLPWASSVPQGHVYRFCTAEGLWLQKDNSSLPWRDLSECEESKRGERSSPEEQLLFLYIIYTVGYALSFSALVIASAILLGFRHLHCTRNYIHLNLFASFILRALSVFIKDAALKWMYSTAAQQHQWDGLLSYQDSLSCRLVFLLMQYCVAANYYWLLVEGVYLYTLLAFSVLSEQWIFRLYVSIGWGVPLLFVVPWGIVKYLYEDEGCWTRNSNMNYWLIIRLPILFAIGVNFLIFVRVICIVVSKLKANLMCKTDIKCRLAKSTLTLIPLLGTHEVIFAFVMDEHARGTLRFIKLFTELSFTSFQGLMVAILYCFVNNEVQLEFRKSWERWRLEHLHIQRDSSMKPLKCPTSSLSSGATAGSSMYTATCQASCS
- test-description: GLP-1 assay with GLP1 endogenous agonist (calcium mobilization, EC20 GLP-1 peptide 7-36 amide)
- Format: cell-based
- experimental-setup: potentiation of EC20 GLP-1 7-36 amide; calcium flux
- From the text: A. GLP-1 Assay with GLP1 Endogenous Agonist To assess the effects of test compounds on GLP-1 or glucagon potency and efficacy, a high-throughput calcium mobilization assay was used essentially as previously described (Morris L C, Days E L, Turney M, Mi D, Lindsley C W, Weaver C D, Niswender K D, A Duplexed High-Throughput Screen to Identify Allosteric Modulators of the Glucagon-Like Peptide 1 and Glucagon Receptors. J. Biomol. Screen. 2014 Feb. 13, 19(6):847-858). […]
measure: EC50 (µM)

Recorded results for 6 compounds are shown here.
structure_notation=Cc1c2ccccc2n2c(C(=O)NC[C@@H]3CCCN3C(C)C)cn(-c3cnn(C)c3)c(=O)c12 assay_value=6.7
structure_notation=Cc1c2ccccc2n2c(C(=O)NC[C@@H]3CCCN3C(C)C)cn([C@H]3CCOC3)c(=O)c12 assay_value=2.4
structure_notation=C=Cc1c2ccccc2n2c(C(=O)NC[C@@H]3CCCN3C(C)C)cn(C3CCCC3)c(=O)c12 assay_value=9.6
structure_notation=CC(C)N1CCC[C@H]1CNC(=O)c1cn(C2CCCC2)c(=O)c2c(C#N)c3ccccc3n12 assay_value=1.9
structure_notation=Cc1c2ccccc2n2c(C(=O)NC[C@@H]3CCCN3C(C)C)cn(-c3cccnc3)c(=O)c12 assay_value=5.2
structure_notation=Cc1c2cc(F)ccc2n2c(C(=O)NC[C@@H]3CCCN3C(C)C)cn(C3CCCC3)c(=O)c12 assay_value=4.4

P. Cc1c2n(c3ccccc13)[C@@H](C(=O)NC[C@@H]1CCCN1C(C)C)CN(C1CCCC1)C2=O
Q. Cc1c2ccccc2n2c(C(=O)NC[C@@H]3CCCN3C(C)C)cn(-c3ccccc3)c(=O)c12
Of the two listed items, which has the higher EC50? First: P Second: Q Identify your pick by its label.
Q
(Q: 13 µM, P: 3.6 µM)
